Sourced from the supplement of paper PMC7125110

B1: glmS ribozyme (parent)
chain: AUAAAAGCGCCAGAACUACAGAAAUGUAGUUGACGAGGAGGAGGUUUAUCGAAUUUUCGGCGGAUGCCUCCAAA

- Variants of: B1
- TEST_PROTOCOL: self-cleavage kobs at 2500 uM GlcN6P; higher = faster cleavage; RNA array
- TEST_SETTINGS: with glucosamine-6-phosphate
Fewer inactive variants are shown than the library holds.
Kindly supply the reported self-cleavage kobs at 2500 uM GlcN6P values for the records listed here.
Use s⁻¹ as the unit, but write only the number.

Input C16A G29C . Output self-cleavage kobs at 2500 uM GlcN6P: 0.00217

Input A15U C68A . Output self-cleavage kobs at 2500 uM GlcN6P: 3.7e-05

Input G29C C67A C71U . Output self-cleavage kobs at 2500 uM GlcN6P: 7.49e-05

Input U30A G40U . Output self-cleavage kobs at 2500 uM GlcN6P: 0.000367

Input A42G U57G . Output self-cleavage kobs at 2500 uM GlcN6P: 4.17e-05
